Origin of values: PubChem BioAssay AID1963986

System: 171881-019-R-J1-PDC tumor spheroid viability;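 note: spheroids exposed to compound for 7 days before viability read; 100% = DMSO vehicle-treated spheroids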
Assay: Anticancer human tumor 171881-019-R-J1-PDC patient-derived invasive breast carcinoma cell line growth inhibition [PI3K]
Conditions: second compound 0.316 µM; first compound 0.001 µM; active compounds read low; spheroids with HUVEC and MSC
Collected viability, T/C values appear next to each entry.

MOLECULE	viability, T/C, %
Cn1ncnc1[C@H]1c2n[nH]c(=O)c3cc(F)cc(c23)N[C@@H]1c1ccc(F)cc1 + Cc1nc(NC(=O)N2CCCC2C(N)=O)sc1-c1ccnc(C(C)(C)C(F)(F)F)c1	56.3
CC(=O)c1c(C)c2cnc(Nc3ccc(N4CCNCC4)cn3)nc2n(C2CCCC2)c1=O + COc1c(OCCCN2CCOCC2)ccc2c3n(c(=NC(=O)c4cnc(N)nc4)nc12)CCN3	2.19
CC(=O)c1c(C)c2cnc(Nc3ccc(N4CCNCC4)cn3)nc2n(C2CCCC2)c1=O + CC(Nc1ccc2c(c1)OCCn1cc(N3C(=O)OCC3C(F)F)nc1-2)C(N)=O	27
Cn1ncnc1[C@H]1c2n[nH]c(=O)c3cc(F)cc(c23)N[C@@H]1c1ccc(F)cc1 + COc1c(OCCCN2CCOCC2)ccc2c3n(c(=NC(=O)c4cnc(N)nc4)nc12)CCN3	1.56
CC(=O)c1c(C)c2cnc(Nc3ccc(N4CCNCC4)cn3)nc2n(C2CCCC2)c1=O + CC(Nc1ncnc2nc[nH]c12)c1cc2cccc(Cl)c2c(=O)n1-c1ccccc1	88.5
CC(C)n1nc(-c2ccc3oc(N)nc3c2)c2c(N)ncnc21 + Cc1nc(NC(=O)N2CCCC2C(N)=O)sc1-c1ccnc(C(C)(C)C(F)(F)F)c1	44
Cn1ncnc1[C@H]1c2n[nH]c(=O)c3cc(F)cc(c23)N[C@@H]1c1ccc(F)cc1 + CC(Nc1ncnc2nc[nH]c12)c1cc2cccc(Cl)c2c(=O)n1-c1ccccc1	99.5
CC(C)n1nc(-c2ccc3oc(N)nc3c2)c2c(N)ncnc21 + CC(Nc1ccc2c(c1)OCCn1cc(N3C(=O)OCC3C(F)F)nc1-2)C(N)=O	25.2
Cn1ncnc1[C@H]1c2n[nH]c(=O)c3cc(F)cc(c23)N[C@@H]1c1ccc(F)cc1 + CC(Nc1ccc2c(c1)OCCn1cc(N3C(=O)OCC3C(F)F)nc1-2)C(N)=O	26.3
